Tested on: UACC-257 melanoma
Assay procedure: NCI tumour cell line growth inhibition, 48 h
Listing: TGI of selected compounds
Parameter: TGI (µM)

>>> test_value("Cc1nc2cc(Nc3nc(Nc4ccc(F)cc4)nc(N4CCOCC4)n3)ccc2n1Cc1ccccc1")
4.42
>>> test_value("CCC(C)C(=O)OCC(=O)c1ccc(-c2ccccc2)cc1 (stereo not given)")
87.4
>>> test_value("Cc1cccc2c3c(sc12)C(c1ccc(F)cc1)C(C#N)=C(N)O3 (stereo not given)")
36.8
>>> test_value("CC1=Nc2c([nH]c(=S)[nH]c2=O)NC(c2c(Cl)cccc2Cl)C1 (stereo not given)")
9.4
>>> test_value("Clc1ccc(C[P+](c2ccccc2)(c2ccccc2)c2ccccc2)cc1Cl")
8.32
>>> test_value("COc1cc2c(/C=C3/C(=O)Nc4ccc(Cl)cc43)c(Cl)[nH]c2cc1C")
22.4

====

Tested on: EKVX NSCLC
Assay procedure: NCI tumour cell line growth inhibition, 48 h
Parameter: TGI

>>> test_value("COC(=O)c1cc(OC)c(OC)c(OC)c1-c1cc2c(cc1C=O)OCO2")
"> 10 µM"
>>> test_value("CCOC(=O)C1(C#N)CC1")
"> 100 µM"
>>> test_value("COc1cc2c(/C=C3/C(=O)N(C)c4ccc(O)cc43)c(Cl)[nH]c2cc1C")
"23.9 µM"
>>> test_value("O=C1CN(c2cccc(Cl)c2)C(=O)CN1NCNN1CC(=O)N(c2cccc(Cl)c2)CC1=O")
"> 100 µM"
>>> test_value("COc1ccccc1C(=O)NCC1CCCN2CCCCC12 (stereo not given)")
"> 100 µM"
>>> test_value("C(=Nc1ccc(-c2nc3ccccc3s2)cc1)c1ccc[nH]1")
"45.4 µM"
>>> test_value("CCCCOC(=O)C1CC[C@H]2[C@@H]3CCc4cc(OC(=O)c5cccc6c(=O)c7ccccc7[nH]c56)ccc4[C@H]3CC[C@]12C (stereo not given in full)")
"8.77 µM"
>>> test_value("C/C(=N\\NC(=S)N1CCCCCC1)c1cccc2cccnc12")
"> 75.3 µM"
>>> test_value("CC(=O)OCC1OC(n2c(Br)nc3c2c(=O)n(C)c(=O)n3C)C(OC(C)=O)C1OC(C)=O (stereo not given)")
"> 100 µM"
>>> test_value("C/C(=N\\O)c1cccc[n+]1Cc1ccccc1")
"> 100 µM"
>>> test_value("COC1(CC[C@@H](C)COC2OC(CO)C(O)C(O)C2O)O[C@H]2C[C@H]3[C@@H]4CC=C5C[C@@H](OC6OC(CO)C(O)C(OC7OC(CO)C(O)C(O)C7O)C6OC6OC(C)C(O)C(O)C6O)CC[C@]5(C)[C@H]4CC[C@]3(C)[C@H]2[C@@H]1C (stereo not given in full)")
"35.3 µM"
>>> test_value("[N-]=[N+]=CC(=O)OCCCCl")
"> 100 µM"
>>> test_value("O=C(O)[C@H](CCC[C@H]1C(=O)O[C@H](c2ccccc2)[C@H](c2ccccc2)N1C(=O)OCc1ccccc1)N[C@@H](c1ccccc1)[C@H](O)c1ccccc1")
"> 100 µM"
>>> test_value("COc1cc2c(c(OC)c1OC)-c1ccc(N=NC(N)=S)c(=O)cc1[C@@H](NC(C)=O)CC2")
"> 100 µM"
>>> test_value("CSc1nc(N)c2c(-c3ccccc3)c3c(nc2n1)CCCC3")
"> 100 µM"
>>> test_value("C[C@@H]1CC(=O)C[C@@H]2CC[C@H]3[C@@H]4CC[C@H](OC(=O)c5cccc6cc7ccccc7nc56)[C@H]4CC[C@@H]3[C@H]21")
"34.7 µM"
>>> test_value("CCc1c(-c2ccc(OC)cc2)oc(OC)c(C)c1=O")
"> 100 µM"
>>> test_value("CC(C)(C)OC(=O)NCc1cccc(N=C=S)c1")
"61 µM"
>>> test_value("Nc1nc(Cl)c(Cl)c(NCC2(O)CCC2)n1")
"> 100 µM"
>>> test_value("COC(=O)C1(SC)C2CCC3C2CCC31 (stereo not given)")
"> 100 µM"

====

Test system: M14 melanoma
Assay procedure: NCI tumour cell line growth inhibition, 48 h
Parameter: TGI

>>> test_value("COC(=O)Nc1nc2ccc(S(=O)(=O)N3CCOCC3)cc2[nH]1")
"> 100 µM"
>>> test_value("COC(=O)[C@H](Cc1cn(C)cn1)NC(=O)[C@H](C)NC(=O)Nc1cc(C(F)(F)F)cc(C(F)(F)F)c1")
"> 10 µM"
>>> test_value("Cc1ccc(C2NC(=O)c3ccccc3N2)c(C)c1 (stereo not drawn)")
"40 µM"
>>> test_value("O=C(NO)NCCCl")
"> 100 µM"
>>> test_value("Cc1nc2ccccc2nc1N=Nc1ccccc1")
"44.8 µM"
>>> test_value("C[C@@H](CO)NC(=O)c1cc(-c2ccc(Cl)cc2)nn(-c2cnn(C)c2)c1=O")
"> 100 µM"
>>> test_value("CC(=O)OC1[C@H](OC(C)=O)C2=C(C)[C@@H](OC(C)=O)C[C@@]2(C(C)(C)O)[C@@H](OC(C)=O)[C@H]2[C@@]1(C)[C@@H](OC(C)=O)CC(OC(C)=O)[C@]21CO1 (stereo partly drawn)")
"> 100 µM"
>>> test_value("C/C(=C/CC[C@]1(CO)CC[C@]2(C)[C@H](CC[C@@H]3[C@@]4(C)CC[C@H](OC5OC(CO)C(O)C(O)C5OC5OC(CO)C(O)C(O)C5O)C(C)(C)[C@@H]4CC[C@]32C)[C@H]1O)CO (stereo partly drawn)")
"> 100 µM"
>>> test_value("CCCCCCCCCCCCCC[n+]1ccc(C)cc1")
"1.25 µM"
>>> test_value("O=Cc1ccc(-c2ccc(-c3nc4ccccc4s3)cc2)s1")
"> 100 µM"
>>> test_value("CN(CCNC(=O)c1c[nH]c2c1Cc1ccccc1-2)CCNC(=O)c1c[nH]c2c1Cc1ccccc1-2")
"84.6 µM"
>>> test_value("O=C1CSC(c2ccc(Cl)cc2Cl)N1c1ccc(Oc2ccc(Cl)cc2)c(Cl)c1 (stereo not drawn)")
"> 100 µM"
>>> test_value("N#CC1=C(O)NC(O)=C(C#N)C1c1ccc(C2C(C#N)=C(O)NC(O)=C2C#N)cc1")
"> 100 µM"
>>> test_value("COC(=O)Cc1cc(=O)[nH]c2c1C(=O)CCC2")
"> 100 µM"
>>> test_value("C/C(=N\\O)c1cccc[n+]1Cc1ccccc1")
"> 100 µM"
>>> test_value("C[C@@H]1CC(=O)C[C@@H]2CC[C@H]3[C@@H]4CC[C@H](OC(=O)c5cccc6cc7ccccc7nc56)[C@H]4CC[C@@H]3[C@H]21")
"31.6 µM"
>>> test_value("CC1(C)O[C@@H]2C[C@H]3[C@@H]4C[C@H](F)C5=CC(=O)C=C[C@]5(C)[C@@]4(F)[C@@H](O)C[C@]3(C)[C@]2(C(=O)CO)O1")
"> 100 µM"
>>> test_value("CC(=O)OCC1OC(n2c(Br)nc3c2c(=O)n(C)c(=O)n3C)C(OC(C)=O)C1OC(C)=O (stereo not drawn)")
"> 100 µM"

====

Tested on: T-47D breast
Assay procedure: NCI tumour cell line growth inhibition, 48 h
Parameter: TGI (µM)

>>> test_value("COc1cc2c(/C=C3/C(=O)Nc4ccc(Cl)cc43)c(Cl)[nH]c2cc1C")
26.9
>>> test_value("COc1ccc(-c2c3c(nc4n[nH]c(-c5ccc(Cl)cc5)c24)-c2ccccc2C(=O)C3=O)cc1")
9.47
>>> test_value("CCn1c(CCl)nc2c1C(=O)c1ccccc1C2=O")
4.21
>>> test_value("Cc1cc2nc3c(C#N)c4c(c(-c5ccc(Cl)cc5)n3c2cc1C)CCC4")
52.1

====

Tested on: HOP-92 NSCLC
Assay procedure: NCI tumour cell line growth inhibition, 48 h
Parameter: GI50

>>> test_value("CC([O-])=C1C(=O)c2ccccc2C1=O.CC([O-])=C1C(=O)c2ccccc2C1=O.CC[O-].CC[O-].[Ti+4]")
"> 100 µM"
>>> test_value("CCSC[C@@H]1C[C@](O)(c2ccc(F)cc2)[C@@H](c2ccc(F)cc2)O1")
"15.2 µM"
>>> test_value("CC1SC2(CCCCC2)N(NC(=O)c2[nH]c3ccc(Br)cc3c2-c2ccccc2)C1=O (stereo unspecified)")
"14.6 µM"
>>> test_value("CN(CCCCCl)P(=O)(OCc1ccc([N+](=O)[O-])o1)OCC1OC(n2cnc([N+](=O)[O-])c2N)C(O)C1O (stereo unspecified)")
"> 100 µM"
>>> test_value("COc1cc(C)c2sc3ccccc3c(=O)c2c1NCCN(C)C")
"1.51 µM"
>>> test_value("NC1(Cc2ccc(Cl)cc2)CCN(c2ncnc3[nH]ccc23)CC1")
"1.09 µM"
